Origin of the recorded values: ChEMBL document CHEMBL1140385

Tested on: Bacillus subtilis
assayText: In vitro minimum inhibitory concentration against Bacillus subtilis upon incubation at 37 degree C for 16 to 24 h
Assay type: functional
Entries annotated with measured MIC

CCc1cc(Nc2cc(=O)n(CCOC(C)=O)c(=O)[nH]2)ccc1C = 1.25 µg/mL
CCc1cc(Nc2cc(=O)n(CCCCOC)c(=O)[nH]2)ccc1C = < 1.25 µg/mL
CCc1cc(Nc2cc(=O)n(CCCCCN)c(=O)[nH]2)ccc1C.Cl = < 1.25 µg/mL
CCc1cc(Nc2cc(=O)n(CCOCCOc3ccccc3)c(=O)[nH]2)ccc1C = < 1.25 µg/mL
CCc1cc(Nc2cc(=O)n(C/C=C/CO)c(=O)[nH]2)ccc1C = 1.25 µg/mL

# input Which value of MIC has been reported for CCc1cc(Nc2cc(=O)n(CCCO)c(=O)[nH]2)ccc1C in the records?
# output < 1.25 µg/mL

# input Another molecule: CCc1cc(Nc2cc(=O)n(CCCCCCCCCCO)c(=O)[nH]2)ccc1C
# output < 1.25 µg/mL

# input And then CCc1cc(Nc2cc(=O)n(CCCCCCCCCO)c(=O)[nH]2)ccc1C , what is it?
# output < 1.25 µg/mL

# input Can you handle CCc1cc(Nc2cc(=O)n(CCCOC)c(=O)[nH]2)ccc1C next?
# output < 1.25 µg/mL

# input Further, for CCc1cc(Nc2cc(=O)n(CCCCCOC(C)=O)c(=O)[nH]2)ccc1C ?
# output 0.625 µg/mL

# input And the next one, CCc1cc(Nc2cc(=O)n(CCCCN)c(=O)[nH]2)ccc1C.Cl ?
# output 20 µg/mL

====

assayText: Area under the plasma concentration curve determined in mouse after peroral administration at 200 mg/kg
Format: ADME, organism-based
Design: dose 200 mg/kg, route oral
measurementConditions: in vivo, po
propertyMeasured: AUC

# input Looking for the measured AUC of CCc1cc(Nc2cc(=O)n(CCCCN3CCOCC3)c(=O)[nH]2)ccc1C.Cl , can you help?
# output 15.4 µg·h/mL

====

Parameter MIC: see the listing below.
Tested on: Staphylococcus aureus
assayText: In vitro minimum inhibitory concentration against Staphylococcus aureus (Smith) upon incubation at 37 degree C for 16 to 24 hr by dissolving in DMSO (1%)
Format: functional
Express the result in µg/mL but write the number alone.

Worked set:
CCc1cc(Nc2cc(=O)n(CC(C)=O)c(=O)[nH]2)ccc1C = 10
CCc1cc(Nc2cc(=O)n(CCCCCCCCN3CCOCC3)c(=O)[nH]2)ccc1C = 10
CCc1cc(Nc2cc(=O)n(CCCCCO)c(=O)[nH]2)ccc1C = 2.5
CCc1cc(Nc2cc(=O)n(CCCOC)c(=O)[nH]2)ccc1C = 2.5
O=C(O)c1cn(C2CC2)c2cc(N3CCNCC3)c(F)cc2c1=O [CIPROFLOXACIN] = 0.078
CCc1cc(Nc2cc(=O)n(CCCCOC(=O)N3CCOCC3)c(=O)[nH]2)ccc1C = 5
CCc1cc(Nc2cc(=O)n(CCCC(C)=O)c(=O)[nH]2)ccc1C = 2.5
CCc1cc(Nc2cc(=O)n(CCCCCN3CCc4c([nH]c5ccc(OC)cc45)C3)c(=O)[nH]2)ccc1C = 10
CCc1cc(Nc2cc(=O)n(CCCOC(C)=O)c(=O)[nH]2)ccc1C = 2.5
CCc1cc(Nc2cc(=O)n(CCOCCOc3ccccc3)c(=O)[nH]2)ccc1C = 20

Okay, now this molecule:
# input Return reported MIC; argument: CCc1cc(Nc2cc(=O)n(CCCCNC(=O)CCl)c(=O)[nH]2)ccc1C
# output 5

====

assayText: Area under the plasma concentration curve determined in mouse after subcutaneous administration at 400 mg/kg
Format: ADME, organism-based
Design: dose 400 mg/kg, route subcutaneous
measurementConditions: in vivo, sc
propertyMeasured: AUC (ng·h/mL)
# value in ng·h/mL; strip the unit string

# input Query: AUC; subject: CCc1cc(Nc2cc(=O)n(CCCCN3CCOCC3)c(=O)[nH]2)ccc1C.Cl
# output 50700

====

Reported values of MIC+/MIC- for individual entries
System: Staphylococcus aureus
assayText: Serum effect on MIC against Staphylococcus aureus (Smith) as ratio of MIC value in presence and absence of 50% fetal calf serum
Assay type: functional
Please respond with just the number, no unit label.

# count of solved cases: 2
CCOC(=O)CCCn1c(=O)cc(Nc2ccc(C)c(CC)c2)[nH]c1=O = 10
CCc1cc(Nc2cc(=O)n(CCCO)c(=O)[nH]2)ccc1C = 5.6

Read the next record carefully.
# input I would be grateful if you could share the reported MIC+/MIC- for CCn1cc(C(=O)O)c(=O)c2cc(F)c(N3CCNCC3)cc21 .
# output 0.4

====

assayText: Half life in mouse after subcutaneous administration at 20 mg/kg
Type: ADME, organism-based
Parameters: dose 20 mg/kg, route subcutaneous
measurementConditions: in vivo, sc
propertyMeasured: half-life (min)
Return type: number; implicit unit min.

# input Fill in: half-life of CCc1cc(Nc2cc(=O)n(CCCCO)c(=O)[nH]2)ccc1C is ___
# output 29.3

====

Tested on: Staphylococcus aureus
assayText: In vitro minimum inhibitory concentration against Staphylococcus aureus (Smith) upon incubation at 37 degree C for 16 to 24 hr by dissolving in DMSO (1%)
Format: functional
propertyMeasured: MIC (µg/mL)
A number alone suffices; assume µg/mL.

CCc1cc(Nc2cc(=O)n(CCCCO)c(=O)[nH]2)ccc1C = 5
CCn1cc(C(=O)O)c(=O)c2cc(F)c(N3CCNCC3)cc21 = 0.156
CCc1cc(Nc2cc(=O)n(CCOC(C)=O)c(=O)[nH]2)ccc1C = 3.75

# input Returns the measured MIC for the input compound. Input: CCc1cc(Nc2cc(=O)n(C/C=C/CO)c(=O)[nH]2)ccc1C
# output 5

# input Quick one: CCc1cc(Nc2cc(=O)n(CCCCCOC(C)=O)c(=O)[nH]2)ccc1C
# output 7.5

# input Would you kindly repeat that for CCc1cc(Nc2cc(=O)n(CCCCCN3CC=C(c4ccc(F)cc4)CC3)c(=O)[nH]2)ccc1C ?
# output 7.5

# input Entry to check: CCc1cc(Nc2cc(=O)n(CCCO)c(=O)[nH]2)ccc1C
# output 5

# input Same question for CCc1cc(Nc2cc(=O)n(CCCCNC(=O)C3CC3)c(=O)[nH]2)ccc1C please.
# output 5

# input Next compound: CCc1cc(Nc2cc(=O)n(CCOCCO)c(=O)[nH]2)ccc1C
# output 5

# input Next up: CCc1cc(Nc2cc(=O)n(CCO)c(=O)[nH]2)ccc1C
# output 5

====

assayText: Area under the plasma concentration curve determined in mouse after intravenous administration at 20 mg/kg
Assay type: ADME, organism-based
Set-up: dose 20 mg/kg, route intravenous
measurementConditions: in vivo
propertyMeasured: AUC
Answer shape: numeric part, then the unit.

CCc1cc(Nc2cc(=O)n(CCCCO)c(=O)[nH]2)ccc1C = 4800 ng·h/mL

# input What AUC value was documented for this molecule, CCc1cc(Nc2cc(=O)n(CCCCN3CCOCC3)c(=O)[nH]2)ccc1C.Cl ?
# output 3900 ng·h/mL

====

Items are presented alongside their recorded MIC.
Tested on: Bacillus subtilis
assayText: In vitro minimum inhibitory concentration against Bacillus subtilis upon incubation at 37 degree C for 16 to 24 h
Assay type: functional
Your answer should be a plain number; it is taken to be in µg/mL.

O=C(O)c1cn(C2CC2)c2cc(N3CCNCC3)c(F)cc2c1=O = 0.078
CCc1cc(Nc2cc(=O)n(CCCCCCCCN3CCOCC3)c(=O)[nH]2)ccc1C = 2.5
CCc1cc(Nc2cc(=O)n(CCCCNS(=O)(=O)c3ccc(C)cc3)c(=O)[nH]2)ccc1C = 5
CCn1cc(C(=O)O)c(=O)c2cc(F)c(N3CCNCC3)cc21 = 0.313

# input Recorded MIC of CCc1cc(Nc2cc(=O)n(CCCOC(C)=O)c(=O)[nH]2)ccc1C , please.
# output 0.625

====

assayText: Maximum plasma concentration in mouse after peroral administration at 200 mg/kg
Format: ADME, organism-based
Design: dose 200 mg/kg, route oral
measurementConditions: po
propertyMeasured: Cmax (ng/mL)
Report as a plain number; the unit ng/mL is understood.

# input What does the record list as Cmax for CCc1cc(Nc2cc(=O)n(CCCCN3CCOCC3)c(=O)[nH]2)ccc1C.Cl ?
# output 7300

====

assayText: Maximum time taken to reach Cmax was determined in mouse after subcutaneous administration at 60 mg/kg
Format: ADME, organism-based
Design: dose 60 mg/kg, route subcutaneous
measurementConditions: in vivo, sc
propertyMeasured: Tmax (min)
Field format: number, assumed min, no unit text.

# input Look up Tmax: CCc1cc(Nc2cc(=O)n(CCCCO)c(=O)[nH]2)ccc1C
# output 15

====

assayText: Maximum time taken to reach Cmax was determined in mouse after subcutaneous administration at 20 mg/kg
Assay type: ADME, organism-based
Set-up: dose 20 mg/kg, route subcutaneous
measurementConditions: in vivo, sc
propertyMeasured: Tmax (min)
State just the number; it will be interpreted in min.

# input Which Tmax value is on record for CCc1cc(Nc2cc(=O)n(CCCCO)c(=O)[nH]2)ccc1C ?
# output 15
